Would you kindly list abundance fitness for each of these variants?
B1: Double-stranded RNA-binding protein Staufen homolog 1, residues 183 to 249; numbered along this chain, O95793 (parent)
chain: KSEISQVFEIALKRNLPVNFEVARESGPPHMKNFVTKVSVGEFVGEGEGKSKKISKKNAAIAVLEEL

# Variants of: B1
# Assay: abundance fitness (aPCA) (normalised: wild type 0, dead -1); higher = more abundant; growth selection in yeast, the domain comes from the species named
# Reported conditions: Homo sapiens
Kindly provide the number alone.

Data request: For the variant shown here, KSEISQVFEIALKRNLPVNFEVARESGPPHMKNFVTKVSVGEFVGEGEGKSRKISKKNAAIAVLEEL [K52R] , give the reported abundance fitness.
Data returned: -0.098

Data request: Any idea what its abundance fitness is? The variant is KSEISQVFEIALKRNLPVNFEVARESGPPHMKNFVTKVSVGEFVGEGEGKSKKISKKNAAIDVLEEL [A62D]
Data returned: -0.185

Data request: So what's the measured abundance fitness for this one? KGEISQVFEIALKRNLPVNFEVARESGPPHMKNFVTKVSVGEFVGEGEGKSKKISKKNAAIAVLEEL [S2G]
Data returned: -0.136

Data request: Give the measured abundance fitness of KSEISQVFEIALKRNLPVNFEVKRESGPPHMKNFVTKVSVGEFVGEGEGKSKKISKKNAAIAVLEEL [A23K] .
Data returned: -0.052

Data request: I am curious: what abundance fitness value has been reported for KSEISQVFEIALKRNLPVNFEVARESGPPHMKNFVTKVSVGEFVGEGEGNSKKISKKNAAIAVLEEL [K50N] ?
Data returned: 0.009

Data request: Find the recorded abundance fitness belonging to KSEISQVFEIALKRNLPVNFEVARESGPPHMKNFVTKVSVGEFVGEGEGKSKKISKKNAAILVLEEL [A62L] and report it.
Data returned: -0.68

Data request: Give the measured abundance fitness of KSEISQVFEIALKRNLPVNFEVARESGPHHMKNFVTKVSVGEFVGEGEGKSKKISKKNAAIAVLEEL [P29H] .
Data returned: -0.105

Data request: Any idea what abundance fitness was measured for KSEISQVFEIALKRNLPVNFEVARESGPPHMKNFVTKVSVGEFVGNGEGKSKKISKKNAAIAVLEEL [E46N] ?
Data returned: 0.01

Data request: Requested field: abundance fitness. Item: KSEISQVFEIALKRNLPVNFEVARESGPPHMKNFVTKVSVGEFVGEGEGKSKKISKKNAAIAVIEEL [L64I]
Data returned: -0.584

Data request: Looking for the measured abundance fitness of KSEISQVFEIALKRVLPVNFEVARESGPPHMKNFVTKVSVGEFVGEGEGKSKKISKKNAAIAVLEEL [N15V] , can you help?
Data returned: -0.785

Data request: Look at this variant and give its reported abundance fitness. KSEISQVFEIALKRNLPVNFEVARESGPPHMKNFVTKVSVGEFVGEGEGKSKKIFKKNAAIAVLEEL [S55F]
Data returned: -0.915

Where do these numbers come from? They come from the Human Domainome abundance scans (Beltran et al. 2025).
